All figures here come from PubChem BioAssay.

- test.target: Torsin-1A (Homo sapiens)
- test: small-molecule binders of mutant TOR1A in lysate, primary screen, cell lysate, small-molecule microarray, COS7 lysate, 635/667 nm fluorescence (AID 1150);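 also: score pools 667 nm emission and signal to noise measuring lysate protein binding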
- details: COS7 hTOR1A mutant lysate, 635 nm fluorescence, higher = more signal
Hi, to clarify the labels: condition met covers composite z-score from 0.7 upward, condition not met covers anything below 0.7.

| compound | label.value |
| --- | --- |
| COC(=O)[C@@H]1CC[C@H](C)[C@@H](c2ccc(Br)cc2)N1C[C@H](O)CN=[N+]=[N-] | condition met |
| CC(CCN1CCCCc2nc(C)c(C)cc21)=NO[C@@H](C)c1cc(-c2c(C)cc(C)cc2C)no1 | condition not met |
| CC(=O)OC[C@H]1O[C@@H](ON=C2[C@H]3CCn4c(=O)n(-c5ccccc5)c(=O)n4[C@H]3[C@H](O)[C@@H]3O[C@H]23)[C@H](OC(C)=O)[C@@H](OC(C)=O)[C@@H]1OC(C)=O | condition not met |
| COC(=O)[C@H](C)NC(=O)CCC1CC(OC(=O)NCCc2ccc(F)cc2)CC2(CCCC(COC(=O)NCC3CCCCC3)O2)O1 (some centres not stated) | condition not met |
| CCN1C(=O)[C@H]2[C@H]3[C@H](O)[C@H](O)CC(=NO[C@@H](C)c4cc(-c5c(C)cc(C)cc5C)no4)[C@@H]3CC[C@H]2C1=O | condition met |
| CCCNC(=O)OC[C@H]1O[C@H](CCON=C[C@@H](NS(=O)(=O)c2ccc(C)cc2)[C@H](C)C=CCC(=O)OC)C=C[C@@H]1Oc1ccc(OC)cc1 | condition not met |
| C[C@@H]1CC[C@H]2C(=O)O[C@@H](COc3ccc(C(C)(C)C)cc3)CN2[C@H]1c1ccc(Br)cc1 | condition not met |
| O=C1[C@H]2[C@H]3[C@H](O)[C@H](O)CC(=NOCc4ccccc4)[C@H]3CC[C@H]2C(=O)N1C1CCCCC1 | condition met |
| Cc1cc(C)c(-c2cc([C@H](C)ON=C[C@@H](C)[C@H](OCc3ccccc3)C(C)C)on2)c(C)c1 | condition not met |
| CC(CCC(=O)OC[C@H]1O[C@H](C#Cc2ccccc2)C=C[C@@H]1Oc1ccc(C)cc1)=NOC(C)CN1CCCc2nc(C)c(C)cc21 (some centres not stated) | condition not met |
| CCOC(=O)NN=C1C[C@@H](O)[C@@H](O)[C@@H]2[C@@H]3C(=O)N(c4ccc(F)cc4F)C(=O)[C@@H]3CC[C@H]12 | condition not met |

====

- test: small-molecule microarray binders of probe aNog, primary screen, biochemical, biotinylated probe, 635/667 nm fluorescence (AID 1115);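 also: probe is biotinylated aNog protein used at 0.15 µg/mL for 1 h at 4 C; z-score combines 667 nm fluorescence of each spot with its signal to noise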
- details: higher = more signal

| chemical.smiles | composite z-score |
| --- | --- |
| COc1ccc(COC(=O)NN=C2C[C@@H](O)[C@@H](O)[C@@H]3[C@@H]4C(=O)N(C(C)(C)C)C(=O)[C@@H]4CC[C@@H]23)cc1 | 0.0498 |
| CCN1C(=O)[C@H]2[C@H]3[C@H](O)[C@H](O)CC(=NO[C@H](C)c4cn([C@H](CO)Cc5ccccc5)nn4)[C@@H]3CC[C@H]2C1=O | 0.202 |
| CC(C)=CCCC(C)=CCON=C1C[C@@H](O)[C@@H](O)[C@@H]2[C@@H]3C(=O)N(C4CCCCC4)C(=O)[C@@H]3CC[C@H]12 | -0.341 |
| COc1ccc(COC(=O)NN=C2C[C@@H](O)[C@@H](O)[C@@H]3[C@@H]4C(=O)N(Cc5ccc6c(c5)OCO6)C(=O)[C@@H]4CC[C@H]23)cc1 | 0.788 |
